- assayOverview: Clearance in mouse at 0.5 mg/kg, iv
- Assay type: ADME, organism-based
- Parameters: dose 0.5 mg/kg, route intravenous
- conditionNotes: in vivo
measurementLabel: clearance
In your response, put the unit directly after the numeric value.

Item `C[C@H]1CN(C(=O)c2ccc(-c3ccncc3)c(F)c2)CCN1C(=O)c1ccc2cc[nH]c2c1` has what recorded clearance?
32.7 mL/min/kg

====

- systemUnderTest: Growth hormone secretagogue receptor type 1 (Homo sapiens)
- Sequence (Q92847 whole entry): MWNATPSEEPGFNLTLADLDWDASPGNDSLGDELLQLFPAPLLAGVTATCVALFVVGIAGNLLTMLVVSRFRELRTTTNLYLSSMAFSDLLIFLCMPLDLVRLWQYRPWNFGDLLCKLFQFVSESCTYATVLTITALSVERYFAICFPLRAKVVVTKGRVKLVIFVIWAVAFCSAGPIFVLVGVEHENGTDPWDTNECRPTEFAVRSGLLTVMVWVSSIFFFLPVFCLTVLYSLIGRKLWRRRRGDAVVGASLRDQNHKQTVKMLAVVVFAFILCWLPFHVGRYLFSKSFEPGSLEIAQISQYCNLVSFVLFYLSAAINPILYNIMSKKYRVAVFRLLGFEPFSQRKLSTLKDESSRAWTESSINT
- assayOverview: Antagonist activity at human GHSR expressed in CHOK1 cells assessed as inhibition of ghrelin-induced intracellular calcium flux by aequorin flash luminescence assay
Measured pIC50, listed per entry for reference.
Note on pIC50: it is the negative log10 of concentration, concentration in mol/L.

The examples below pair each entry with its known result.
In [3]: df
Out[3]:
                               smilesstring  valuemeasured
0  COc1cccc(-c2ccc(C(=O)N3CCN(C(=O)c4ccc5cc[nH]c5c4)[C@H](C)C3)cc2)c1           6.19
1  COc1cccc(-c2ccc(C(=O)N3CCN(C(=O)c4ccc5cc[nH]c5c4)C[C@H]3C)cc2)c1           7.17
2  C[C@H]1CN(C(=O)c2ccc(-c3cn[nH]c3)cc2)CCN1C(=O)c1ccc2cc[nH]c2c1           6.91
3  C[C@H]1CN(C(=O)c2ccc(-c3ccncc3F)c(F)c2)CCN1C(=O)c1ccc2cc[nH]c2c1           7.38

Lookup: pIC50 / Growth hormone secretagogue receptor type 1 (Homo sapiens) / `C[C@H]1CN(C(=O)c2ccc(-c3cccc(OC(F)(F)F)c3)cc2)CCN1C(=O)c1ccc2cc[nH]c2c1`
7.33

Param item: `C[C@H]1CN(C(=O)c2ccc(-c3ccccc3Cl)cn2)CCN1C(=O)c1ccc2cc[nH]c2c1`
7.43

Param item: `C[C@H]1CN(C(=O)c2ccc(-c3ccncc3F)cc2)CCN1C(=O)c1ccc2cc[nH]c2c1`
7.51

Param item: `O=C(c1ccc(-c2ccccc2)cc1)N1CCCN(C(=O)c2ccc3cc[nH]c3c2)CC1`
5.19

Param item: `C[C@H]1CN(C(=O)c2ccc(N3CCOCC3)cc2)CCN1C(=O)c1ccc2cc[nH]c2c1`
6.47

Param item: `Cc1ccccc1-c1ccc(C(=O)N2CCN(C(=O)c3ccc4cc[nH]c4c3)[C@@H](C)C2)cc1`
8.54

Entry source: ChEMBL document CHEMBL1154934
